The measurements presented in this section are drawn from ChEMBL document CHEMBL4011591.

Assay: Plasma concentration in Balb-C mouse at 2 mg/kg, iv administered as bolus dose measured after 37 mins by LC-MS analysis
Assay type: ADME, organism-based
parameter: concentration at 37 min

smiles_representation=N#C/N=C(/NCc1cccnc1)NCC12CC3CC(CC(C3)C1)C2 parameter="concentration at 37 min" observed_result="0.123 µg/mL"

----------
Biological target: P2X purinoceptor 7 (Homo sapiens)
Sequence (Q99572 whole entry): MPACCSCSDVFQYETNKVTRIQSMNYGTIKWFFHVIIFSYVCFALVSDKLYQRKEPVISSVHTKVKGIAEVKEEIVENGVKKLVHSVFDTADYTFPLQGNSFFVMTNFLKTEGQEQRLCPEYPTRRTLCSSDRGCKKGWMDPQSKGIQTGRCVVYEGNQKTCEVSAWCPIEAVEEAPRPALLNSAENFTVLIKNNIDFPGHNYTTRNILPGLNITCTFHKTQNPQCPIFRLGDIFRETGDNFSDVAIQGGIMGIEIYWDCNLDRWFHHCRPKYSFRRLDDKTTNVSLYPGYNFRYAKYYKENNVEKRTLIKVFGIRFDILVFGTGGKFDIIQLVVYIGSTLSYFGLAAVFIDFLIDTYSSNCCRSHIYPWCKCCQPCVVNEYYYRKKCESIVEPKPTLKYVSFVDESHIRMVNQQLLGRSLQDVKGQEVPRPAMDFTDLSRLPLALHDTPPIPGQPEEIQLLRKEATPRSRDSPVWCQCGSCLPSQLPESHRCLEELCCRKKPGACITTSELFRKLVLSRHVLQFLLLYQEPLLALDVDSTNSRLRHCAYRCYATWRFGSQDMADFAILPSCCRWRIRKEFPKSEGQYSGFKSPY
Test: Antagonist activity at P2X7 receptor in human THP1 cells assessed as inhibition of BzATP-induced YO-PRO-1 Iodide uptake measured every 30 secs for 1 hr by fluorescence assay
Format: cell-based
pIC50: −log10 of the molar value.
parameter: pIC50

smiles_representation=N#C/N=C(/NCc1cccc(F)c1)NCC12CC3CC(CC(C3)C1)C2 target_or_test_system="P2X purinoceptor 7 (Homo sapiens)" parameter=pIC50 comparison_operator== observed_result=6.15
smiles_representation=N#C/N=C(\NCC12CC3CC(CC(C3)C1)C2)Nc1ccc(F)cc1 target_or_test_system="P2X purinoceptor 7 (Homo sapiens)" parameter=pIC50 comparison_operator== observed_result=6.76
smiles_representation=COc1ccc(CN/C(=N/C#N)NCC23CC4CC(CC(C4)C2)C3)cc1 target_or_test_system="P2X purinoceptor 7 (Homo sapiens)" parameter=pIC50 comparison_operator=< observed_result=5.00
smiles_representation=N#C/N=C(\NCC12CC3CC(CC(C3)C1)C2)Nc1cccc(F)c1 target_or_test_system="P2X purinoceptor 7 (Homo sapiens)" parameter=pIC50 comparison_operator== observed_result=6.73
smiles_representation=N#C/N=C(\NCC12CC3CC(CC(C3)C1)C2)Nc1ccccc1 target_or_test_system="P2X purinoceptor 7 (Homo sapiens)" parameter=pIC50 comparison_operator== observed_result=7.00
smiles_representation=N#C/N=C(/NCc1ccccc1)NC12CC3CC(CC(C3)C1)C2 target_or_test_system="P2X purinoceptor 7 (Homo sapiens)" parameter=pIC50 comparison_operator=< observed_result=5.00
